Source of measurements: PubChem BioAssay

Assay Notes: binders of probe aFSTL3 on microarray, primary screen, stem cell growth factor project, biochemical, small-molecule microarray, fluorescence 635/667 (AID 1064);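 further: measures binding of the biotinylated anti-FSTL3 antibody to printed compounds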
Setup Conditions: higher = more signal
Categorized via composite z-score: bottom end (below -0.5), midrange (-0.5 to below -0.2), top end (-0.2 or more)

Before answering, review these 3 worked examples.
- Compound: "CC=CC1=C(CO)[C@H](O)[C@H]2O[C@H]2[C@@H]1O"
  Category Label: "midrange"
- Compound: "COC(=O)[C@H](C)NC(=O)CCC1CC(OC(=O)NCCc2ccc(F)cc2)CC2(CCCC(COC(=O)NCCc3ccccc3OC)O2)O1 (stereo partly specified)"
  Category Label: "bottom end"
- Compound: "COc1cccc([C@H](O)Cn2cc(-c3ccc(CON=C(C)C)cc3)nn2)c1"
  Category Label: "top end"

Q) Tag the class for CC(C)(C)N1C(=O)[C@H]2[C@H]3[C@H](O)[C@H](O)CC(=NOC[C@@H](O)COCc4ccco4)[C@H]3CC[C@H]2C1=O
A) top end

Q) Tag the class for CC(C)CON=C1C[C@@H](O)[C@@H](O)[C@@H]2[C@@H]3C(=O)N([C@@H](C)c4ccccc4)C(=O)[C@@H]3CC[C@@H]12
A) top end

Q) Tag the class for COC(=O)[C@H](CCSC)NC(=O)CC=C[C@@H](C)CO
A) bottom end

Q) Tag the class for O=C1C=C[C@@H](O)[C@@H]2[C@@H]3C(=O)N(c4cccc(Oc5ccccc5)c4)C(=O)[C@@H]3CC[C@@H]12
A) bottom end

Q) Tag the class for COC(=O)CC=C[C@@H](C)[C@@H](C=NOC[C@@H](O)COCc1ccco1)OC
A) bottom end

Q) Tag the class for CC(CCC(=O)OC[C@H]1O[C@H](C#Cc2ccccc2)C=C[C@@H]1Oc1ccc(C)cc1)=NOC(C)CN1CCCc2nc(C)c(C)cc21 (stereo partly specified)
A) midrange

Q) Tag the class for COC(=O)[C@@H]1CC[C@H](C)[C@@H](c2ccc(Br)cc2)N1C(=O)C(F)(F)F
A) midrange
